- EXPERIMENT: gradient 5% acetonitrile 3 min, to 50% in 2 min, to 85% in 15 min, held 3 min, 100 µL/min
- REPORTED_CONDITIONS: column: Zorbax Extend-C18 2.1 x 50 mm; eluents: water / acetonitrile, 0.1% formic acid
PARAMETER: RP-LC retention time (s)

The cases that follow already have their RP-LC retention time on record.
O=S(=O)(c1cccc(-c2nnc(-c3ccc(F)cc3)o2)c1)N1CCCC1 :: 991
Cc1nc(CCNC(=O)C2CCN(S(=O)(=O)c3ccc(CC(C)C)cc3)CC2)cs1 :: 917
CCN(CC)CCNC(=O)CCc1cc2cc(C)ccc2[nH]c1=O :: 587
CCn1cc(S(=O)(=O)N2CCC(Cc3nc(-c4ccncc4)n[nH]3)C2)cn1 (stereo not drawn) :: 578
CCN1CCN(c2nc3c(s2)CN(C(=O)CCC(C)C)CC3)CC1 :: 614
Cc1cccc(-c2nn3c(N4CCN(c5ccccn5)CC4)cc(C)nc3c2C)c1 :: 648
Cc1cc(C)n(-c2nc(C)c(C)c(=O)n2CC(=O)N2CCCc3ccccc32)n1 :: 907
CCCNc1cc(N2CCCC(CCC(=O)Nc3ccc(OC)cc3OC)C2)ncn1 (stereo not drawn) :: 707
O=c1n(Cc2ccc(F)cc2Cl)nc2n1CCCCC2 :: 751
CCOC(=O)c1cc(C2CC2)nc2c1c(=O)n(Cc1ccccc1C)c(=O)n2C :: 1240

[I] COc1ccc(-n2ccn3cc(-c4ccc5c(c4)OCO5)nc3c2=O)cc1
[II] CC1CCN(S(=O)(=O)c2ccc(-c3nnc(C(=O)NC4CCCCCC4)o3)cc2)CC1
Task: # compare RP-LC retention time for I vs II ; return the one with the smaller value Please reply using the label of the selected record.
Result: I

[a] COc1ccc(-c2nc3ncccn3c2NCc2ccc(C)cc2)cc1OC
[b] O=S(=O)(c1ccc2c(c1)CCC2)N1CCc2nc(-c3ccc(F)cc3)ncc2C1
Task: Given the listed items, does a or b have the lesser reported RP-LC retention time? Refer to your chosen item by its label in the answer.
Result: a

====

- EXPERIMENT: gradient 5% acetonitrile 3 min, to 50% in 2 min, to 85% in 15 min, held 3 min, 100 µL/min
- REPORTED_CONDITIONS: column: Zorbax Extend-C18 2.1 x 50 mm; eluents: water / acetonitrile, 0.1% formic acid
PARAMETER: RP-LC retention time (s)

Some solved entries appear below for comparison.
O=C(Nc1nnc(C2CC(=O)N(c3ccc(F)cc3)C2)o1)c1cccc(Cl)c1 (centres undefined) :: 750
O=C1C[C@@H](c2ccc(O)c(O)c2)Oc2c1ccc(O[C@@H]1O[C@H](CO)[C@@H](O)[C@H](O)[C@H]1O)c2O :: 617
COc1ccccc1N1CCN(c2cc(SCC(=O)Nc3ccc(Cl)cc3)ncn2)CC1 :: 1080
Cc1ccccc1CNC(=O)C1CCCN(c2nnc(C)c3c(C)n(-c4ccc(Cl)cc4)nc23)C1 (centres undefined) :: 784
CCC1CCCCN1C(=O)c1cnc2nc(C)ccc2c1Nc1ccc2c(c1)OCCO2 (centres undefined) :: 666
Cc1csc(C(=O)NC2CNC(=O)C2)c1 (centres undefined) :: 572
CC1CN(CC(=O)N2CCN(c3ccccn3)CC2)c2ccccc2S1 (centres undefined) :: 683
CCCOc1nn(CCC)cc1C(=O)Nc1nccs1 :: 865
CC1CCCCN1S(=O)(=O)c1ccc2nc(N3CCN(c4cccc(Cl)c4)CC3)ccc2c1 (centres undefined) :: 1250
COCCN1CC(CO)C2(CCN(Cc3cccc(Cl)c3)CC2)C1 (centres undefined) :: 531

[P] O=C(CN1C(=O)C2CCCCN2c2ccc(S(=O)(=O)N3CCCCC3)cc21)NC1CCCCC1 (centres undefined)
[Q] CN1CCc2c([nH]c3ccccc23)C12CCN(S(=O)(=O)c1cccnc1)CC2
Task: Which is greater in RP-LC retention time, the first item P or the second item Q ? # respond with the chosen item's label
Result: P

====

- EXPERIMENT: gradient 5% acetonitrile 3 min, to 50% in 2 min, to 85% in 15 min, held 3 min, 100 µL/min
- REPORTED_CONDITIONS: column: Zorbax Extend-C18 2.1 x 50 mm; eluents: water / acetonitrile, 0.1% formic acid
PARAMETER: RP-LC retention time (s)

Recorded RP-LC retention time, per entry:
COc1cc(NC(=O)CN2C(=O)C(O)(c3ccccc3)c3ccccc32)cc(OC)c1 (centres undefined) :: 872
Cc1ccc(NC(=O)NCCn2c(C(F)(F)F)nc3cccnc32)cc1F :: 786
COc1cccc(-c2nc3cnccn3c2NCCC(=O)NC2CCCCCC2)c1 :: 755
CC(C)Oc1ccc(CN2CC[C@]3(CO)CN(Cc4ccccc4)C[C@@H]3C2)cc1 :: 718
COC(=O)c1c(NCc2ccco2)c2cccc(Cl)c2[nH]c1=O :: 740
CC(C)Cc1ccc(S(=O)(=O)N(C)C2CCc3nn(CC4CC4)c(=O)n3CC2)cc1 (centres undefined) :: 914
Cc1ccccc1-c1noc(Cn2nc(-c3ccccc3F)ccc2=O)n1 :: 986

[1] CCN1C(=O)CC[C@]2(CN(C)C(=O)Cc3cccc(F)c3)CCC[C@@H]12
[2] COc1ccc(-c2nn3c(-c4ccc(N(C)C)cc4)nnc3s2)cc1
Task: API: POST /compare with 1 and 2 ; response names the item with higher RP-LC retention time. Kindly give the label for the entry you pick.
Result: 2
(2: 1120 s, 1: 752 s)

====

- EXPERIMENT: gradient 5% acetonitrile 3 min, to 50% in 2 min, to 85% in 15 min, held 3 min, 100 µL/min
- REPORTED_CONDITIONS: column: Zorbax Extend-C18 2.1 x 50 mm; eluents: water / acetonitrile, 0.1% formic acid
PARAMETER: RP-LC retention time (s)

// known answers, use as guide
Cn1cnc2c(C(=O)Nc3cccc(C(F)(F)F)c3)nn(-c3ccccc3)c2c1=O :: 970
O=C1c2ccccc2C(=O)c2sc(Nc3ccc(Cl)c(Cl)c3)nc21 :: 1140
CC1(C)CC(NC(=O)c2cccc(Br)c2)CC(C)(C)N1 :: 620

[a] CC(C)n1cnc2ccc(-c3noc(COc4ccc(Cl)cc4)n3)cc21
[b] CC1CCCCN1Cc1nnc(-c2ccccc2)o1 (stereo not given)
Task: Please indicate which has the smaller reported RP-LC retention time: a , or b . To answer, give the label that identifies your chosen option.
Result: b

====

- EXPERIMENT: gradient 5% acetonitrile 3 min, to 50% in 2 min, to 85% in 15 min, held 3 min, 100 µL/min
- REPORTED_CONDITIONS: column: Zorbax Extend-C18 2.1 x 50 mm; eluents: water / acetonitrile, 0.1% formic acid
PARAMETER: RP-LC retention time (s)

O=c1n(Cc2ccccc2F)nc2c(S(=O)(=O)N3CCN(c4ccc(F)cc4)CC3)cccn12 :: 969
CC1CCCCN1CCNC(=O)CCCn1c2ccccc2c2cnn(C)c(=O)c21 (stereo not given) :: 632
O=C1NC2CCCCC2=C1CC(=O)N1CCCCC1 (stereo not given) :: 633
N#Cc1ccccc1OCC(O)CNCCNC(=O)Nc1ccccc1 (stereo not given) :: 696
COc1ccc(-c2ccnc3nc(-c4cccs4)nn23)c(F)c1 :: 905

[I] CCCCC(=O)Nc1ccc2c(c1)nc(CN1CCN(S(C)(=O)=O)CC1)n2CC
[II] CCCN1C(=O)COc2ccc(-c3noc(-c4cccc(C)c4)n3)cc21
[III] COCc1cc(=O)n(CC(=O)Nc2ccc(F)c(Cl)c2)c(N2CCOCC2)n1
Task: rank_up(items): orders items by reported RP-LC retention time in ascending numerical order. Sort and list the labels as requested.
Result: I, III, II
(I: 635 s, III: 917 s, II: 1320 s)

====

- EXPERIMENT: gradient 5% acetonitrile 3 min, to 50% in 2 min, to 85% in 15 min, held 3 min, 100 µL/min
- REPORTED_CONDITIONS: column: Zorbax Extend-C18 2.1 x 50 mm; eluents: water / acetonitrile, 0.1% formic acid
PARAMETER: RP-LC retention time (s)

Here's what some known entries look like.
Cc1ccc(CNC(=O)C2(C)CCCN(C(=O)Nc3cccc(Cl)c3C)C2)cc1 (stereo not given) :: 1060
CC(C)NC(=O)c1ccc(OCC2CCN(C(=O)C3(c4ccccc4)CC3)CC2)cc1 :: 897
Cc1ccc(N2C=C(C(=O)N3CCOCC3)S(=O)(=O)c3ccc(F)cc32)cc1 :: 814
CNC(=O)N1CCCC(c2cccc(C(=O)NC(C)c3ccc(F)cc3)c2)C1 (stereo not given) :: 792
Cc1cc(C)cc(NC(=O)N2CCCC(C)(C(=O)NCc3ccccc3C)C2)c1 (stereo not given) :: 897

[P] COc1ccc(C2(C(=O)Nc3cc(-c4cccnc4)no3)CC2)cc1
[Q] Cc1ccc(-c2noc(Cn3c(=O)n(Cc4ccc5c(c4)OCO5)c(=O)c4sccc43)n2)cc1C
Task: Lab note: record which item had the higher RP-LC retention time, P or Q . Pick one; state its label.
Result: Q
